tested on: NbALFA; assay: SPR measurements of NbALFA binding (Biacore T200, multi cycle kinetics, 1:1 binding model); details: 25° C., HBS-EP+ buffer, biotinylated NbALFA captured
Bridge positions count the residues as written; N and C are the ends. Peptide text beside a SMILES is read from it.
REPORTED METRIC: ka (M⁻¹ s⁻¹)

COMPOUND	REPORTED METRIC	TEST RESULT
CC(=O)N[C@@H](CO)C(=O)N[C@@H](CCCNC(=N)N)C(=O)N[C@@H](CC(C)C)C(=O)N[C@@H](CCC(=O)O)C(=O)N[C@@H](CCC(=O)O)C(=O)N[C@@H](CCC(=O)O)C(=O)N[C@@H](CC(C)C)C(=O)N[C@@H](CCCNC(=N)N)C(=O)N[C@H]1CCCCNC(=O)CC[C@@H](C(N)=O)NC(=O)[C@H]([C@@H](C)O)NC(=O)[C@H](CC(C)C)NC(=O)[C@H](CCCNC(=N)N)NC1=O [SD15193] (Ac-SRLEEELRKRLTE-NH2; lactam 9-13)	ka	1.95e+07
CC(=O)N[C@@H](CO)C(=O)N[C@@H](CCCNC(=N)N)C(=O)N[C@@H](CC(C)C)C(=O)N[C@@H](CCC(=O)O)C(=O)N[C@H]1CCC(=O)NCCCC[C@@H](C(=O)N[C@@H](CCCNC(=N)N)C(=O)N[C@@H](CCCNC(=N)N)C(=O)N[C@@H](CC(C)C)C(=O)N[C@H](C(=O)N[C@@H](CCC(=O)O)C(N)=O)[C@@H](C)O)NC(=O)[C@H](CC(C)C)NC(=O)[C@H](CCC(=O)O)NC1=O [SD15192] (Ac-SRLEEELKRRLTE-NH2; lactam 5-8)	ka	1.05e+07
CC(=O)N1CCC[C@H]1C(=O)N[C@@H](CO)C(=O)N[C@@H](CCCNC(=N)N)C(=O)N[C@@H](CC(C)C)C(=O)N[C@H]1CCC(=O)NCCCC[C@@H](C(=O)N[C@@H](CCCNC(=N)N)C(=O)N[C@@H](CCCNC(=N)N)C(=O)N[C@@H](CC(C)C)C(=O)N[C@H](C(=O)N[C@@H](CCC(=O)O)C(N)=O)[C@@H](C)O)NC(=O)[C@H](CC(C)C)NC(=O)[C@H](CCC(=O)O)NC(=O)[C@H](CCC(=O)O)NC1=O [SD15806] (Ac-PSRLEEELKRRLTE-NH2; lactam 5-9)	ka	3.44e+09
CC(=O)N[C@@H](CO)C(=O)N[C@@H](CCCNC(=N)N)C(=O)N[C@@H](CC(C)C)C(=O)N[C@@H](CCC(=O)O)C(=O)N[C@H]1CCC(=O)NCCCC[C@@H](C(=O)N[C@@H](CCCNC(=N)N)C(=O)N[C@@H](CC(C)C)C(=O)N[C@H](C(=O)N[C@@H](CCC(=O)O)C(N)=O)[C@@H](C)O)NC(=O)[C@H](CCCNC(=N)N)NC(=O)[C@H](CC(C)C)NC(=O)[C@H](CCC(=O)O)NC1=O [SD15194] (Ac-SRLEEELRKRLTE-NH2; lactam 5-9)	ka	1.78e+07
CC(=O)N[C@@H](CO)C(=O)N[C@@H](CCCNC(=N)N)C(=O)N[C@@H](CC(C)C)C(=O)N[C@@H](CCC(=O)O)C(=O)N[C@H]1CC(=O)NCCCC[C@@H](C(=O)N[C@@H](CCCNC(=N)N)C(=O)N[C@@H](CC(C)C)C(=O)N[C@H](C(=O)N[C@@H](CCC(=O)O)C(N)=O)[C@@H](C)O)NC(=O)[C@H](CCCNC(=N)N)NC(=O)[C@H](CC(C)C)NC(=O)[C@H](CCC(=O)O)NC1=O [SD15196] (Ac-SRLEDELRKRLTE-NH2; lactam 5-9)	ka	1.81e+07
